- Tested on: Prothrombin time (blood clotting)
- protocol-notes: Prothrombin time ED50 (3 days after intraperitoneal injection)
- Type: in vivo, rat (male Wistar strain)
- condition-set: Rattus norvegicus, S100, ip, 72 h; male Wistar rats 200-250 g, single intraperitoneal injection, blood taken three days after injection; ED50 = 50% extension of prothrombin time (0% = 12 s, 100% = 212 s); read-out: 3-day ED50 (Prothrombin time ED50)
Binned ED50; ranges: 0 (below 0.4 mg/kg), 1 (0.4 mg/kg to below 0.8 mg/kg), 2 (0.8 mg/kg or more)

[
  {
    "compound": "O=c1oc2ccccc2c(O)c1C1CC(c2ccc(OCc3ccc(F)cc3)cc2)Cc2ccccc21 (stereo not drawn)",
    "tested-system": "Prothrombin time (blood clotting)",
    "group": 1
  },
  {
    "compound": "O=c1oc2ccccc2c(O)c1[C@@H]1C[C@@H](c2ccc(OCc3ccccc3)cc2)Cc2ccccc21 (relative stereo) [Compound 14, reference compound]",
    "tested-system": "Prothrombin time (blood clotting)",
    "group": 2
  },
  {
    "compound": "O=c1oc2ccccc2c(O)c1C1CC(c2ccc(Oc3ccc(C(F)(F)F)cc3)cc2)Cc2ccccc21 (stereo not drawn)",
    "tested-system": "Prothrombin time (blood clotting)",
    "group": 0
  },
  {
    "compound": "CC(=O)CC(c1ccccc1)c1c(O)c2ccccc2oc1=O (stereo not drawn)",
    "tested-system": "Prothrombin time (blood clotting)",
    "group": 2
  },
  {
    "compound": "O=c1oc2ccccc2c(O)c1C1CC(c2ccc(OCc3ccc(Br)cc3)cc2)Cc2ccccc21 (stereo not drawn)",
    "tested-system": "Prothrombin time (blood clotting)",
    "group": 0
  },
  {
    "compound": "O=c1oc2ccccc2c(O)c1[C@@H]1C[C@@H](c2ccc(-c3ccc(C(F)(F)F)cc3)cc2)Cc2ccccc21 (relative stereo)",
    "tested-system": "Prothrombin time (blood clotting)",
    "group": 1
  },
  {
    "compound": "O=c1oc2ccccc2c(O)c1C1CC(c2ccc(CCc3ccc(Cl)cc3)cc2)Cc2ccccc21 (stereo not drawn)",
    "tested-system": "Prothrombin time (blood clotting)",
    "group": 0
  },
  {
    "compound": "O=c1oc2ccccc2c(O)c1C1CC(c2ccc(CCc3ccc(Br)cc3)cc2)Cc2ccccc21 (stereo not drawn)",
    "tested-system": "Prothrombin time (blood clotting)",
    "group": 0
  },
  {
    "compound": "N#Cc1ccc(-c2ccc([C@@H]3Cc4ccccc4[C@H](c4c(O)c5ccccc5oc4=O)C3)cc2)cc1 (relative stereo)",
    "tested-system": "Prothrombin time (blood clotting)",
    "group": 0
  },
  {
    "compound": "O=c1oc2ccccc2c(O)c1C1CC(c2c(Cl)cccc2Cl)Cc2ccccc21 (stereo not drawn) [Compound 26, reference compound]",
    "tested-system": "Prothrombin time (blood clotting)",
    "group": 2
  },
  {
    "compound": "O=c1oc2ccccc2c(O)c1[C@@H]1C[C@H](c2ccc(-c3ccc(C(F)(F)F)cc3)cc2)Cc2ccccc21 (relative stereo)",
    "tested-system": "Prothrombin time (blood clotting)",
    "group": 1
  },
  {
    "compound": "O=c1oc2ccccc2c(O)c1C1CC(c2ccc(OCc3ccc(C(F)(F)F)cc3)cc2)Cc2ccccc21 (stereo not drawn)",
    "tested-system": "Prothrombin time (blood clotting)",
    "group": 0
  },
  {
    "compound": "N#Cc1ccc(CCc2ccc(C3Cc4ccccc4C(c4c(O)c5ccccc5oc4=O)C3)cc2)cc1 (stereo not drawn)",
    "tested-system": "Prothrombin time (blood clotting)",
    "group": 2
  },
  {
    "compound": "O=c1oc2ccccc2c(O)c1C1CC(c2ccc(CCCc3ccc(Cl)cc3)cc2)Cc2ccccc21 (stereo not drawn)",
    "tested-system": "Prothrombin time (blood clotting)",
    "group": 0
  },
  {
    "compound": "O=c1oc2ccccc2c(O)c1C1CC(Cc2ccc(Cl)cc2Cl)Cc2ccccc21 (stereo not drawn)",
    "tested-system": "Prothrombin time (blood clotting)",
    "group": 2
  },
  {
    "compound": "O=c1oc2ccccc2c(O)c1C1CC(c2ccc(C(F)(F)F)cc2)Cc2ccccc21 (stereo not drawn)",
    "tested-system": "Prothrombin time (blood clotting)",
    "group": 1
  },
  {
    "compound": "N#Cc1ccc(-c2ccc([C@H]3Cc4ccccc4[C@H](c4c(O)c5ccccc5oc4=O)C3)cc2)cc1 (relative stereo)",
    "tested-system": "Prothrombin time (blood clotting)",
    "group": 1
  },
  {
    "compound": "N#Cc1ccc(C2Cc3ccccc3C(c3c(O)c4ccccc4oc3=O)C2)cc1 (stereo not drawn)",
    "tested-system": "Prothrombin time (blood clotting)",
    "group": 1
  },
  {
    "compound": "CCCCCCC1Cc2ccccc2C(c2c(O)c3ccccc3oc2=O)C1 (stereo not drawn) [Compound 30, reference compound]",
    "tested-system": "Prothrombin time (blood clotting)",
    "group": 2
  },
  {
    "compound": "O=c1oc2ccccc2c(O)c1C1CC(c2ccc(OCc3ccc(Cl)c(Cl)c3)cc2)Cc2ccccc21 (stereo not drawn)",
    "tested-system": "Prothrombin time (blood clotting)",
    "group": 1
  },
  {
    "compound": "O=c1oc2ccccc2c(O)c1C1CC(c2ccc3c(c2)CCCC3)Cc2ccccc21 (stereo not drawn) [Compound 28, reference compound]",
    "tested-system": "Prothrombin time (blood clotting)",
    "group": 2
  },
  {
    "compound": "O=c1oc2ccccc2c(O)c1C1CC(c2ccc(-c3ccc(Br)cc3)cc2)Cc2ccccc21 (stereo not drawn)",
    "tested-system": "Prothrombin time (blood clotting)",
    "group": 0
  },
  {
    "compound": "O=c1oc2ccccc2c(O)c1C1CC(c2ccccc2-c2ccc(C(F)(F)F)cc2)Cc2ccccc21 (stereo not drawn) [Compound 27, reference compound]",
    "tested-system": "Prothrombin time (blood clotting)",
    "group": 2
  },
  {
    "compound": "O=c1oc2ccccc2c(O)c1C1CC(CCCc2ccccc2)Cc2ccccc21 (stereo not drawn) [Compound 29, reference compound]",
    "tested-system": "Prothrombin time (blood clotting)",
    "group": 2
  }
]
